# Kb listing for each entry below
- TESTED_ON: Histamine H2 receptor (Cavia porcellus)
- Sequence (P47747 whole entry): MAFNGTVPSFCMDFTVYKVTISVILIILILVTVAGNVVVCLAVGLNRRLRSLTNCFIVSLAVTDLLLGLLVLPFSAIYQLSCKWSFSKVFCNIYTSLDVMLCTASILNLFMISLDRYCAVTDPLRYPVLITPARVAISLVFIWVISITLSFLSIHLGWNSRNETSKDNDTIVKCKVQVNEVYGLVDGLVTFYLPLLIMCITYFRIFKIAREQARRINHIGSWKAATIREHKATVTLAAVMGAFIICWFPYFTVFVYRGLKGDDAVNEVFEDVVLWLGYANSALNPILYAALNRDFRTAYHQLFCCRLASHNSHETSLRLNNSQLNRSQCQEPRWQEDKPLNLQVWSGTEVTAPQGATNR
- ASSAY_INFO: Antagonistic activity against H2 receptor in guinea pig.
- Type: functional
- CONDITIONS: read-out: pA2 (converted)

>  <MOLECULAR_STRING>
C/N=C(\N)NCCCc1nccs1

>  <UNIT_NAME>
µM

>  <Kb>
63.1

$$$$
>  <MOLECULAR_STRING>
CSC(=N)NCCCc1c[nH]cn1

>  <UNIT_NAME>
µM

>  <Kb>
25.1

$$$$
>  <MOLECULAR_STRING>
CSC(=N)NCCSCc1[nH]cnc1C

>  <UNIT_NAME>
µM

>  <Kb>
6.92

$$$$
>  <MOLECULAR_STRING>
C/N=C(\N)NCCSCc1c[nH]cn1

>  <UNIT_NAME>
µM

>  <Kb>
41.7

$$$$
>  <MOLECULAR_STRING>
Cc1nc[nH]c1CSCCNC(=O)NCCCc1cnc[nH]1

>  <UNIT_NAME>
µM

>  <Kb>
6.31

$$$$
>  <MOLECULAR_STRING>
CC1=NN(c2ccc([N+](=O)[O-])cc2)C(=O)C1[N+](=O)[O-].Cc1[nH]cnc1CSCC/N=C(\N)NCCCc1cn(C)cn1

>  <UNIT_NAME>
µM

>  <Kb>
1.58

$$$$
>  <MOLECULAR_STRING>
Cc1[nH]cnc1CSCCNC(=N)NCCSCc1nc[nH]c1C

>  <UNIT_NAME>
µM

>  <Kb>
0.214

$$$$
